Hey, just so you know, these numbers are from patent US8163795B2.

- assayComment: HMC pharmacokinetics i.v. and i.p., mice
- Format: in vivo, female BALB/c mice
- studyConditions: female, BALB/c, mouse, serum, ip, 50 mg/kg, 50 mg/kg in 20% HPBCD, 0.25 hr
- Procedure: HMC was prepared as a solution in 20% hydroxypropyl-beta-cyclodextrin (m:v, water). […] Three animals were allocated to each timepoint (15 min, 30 min, 1 hr, 4 hr and 24 hr). At each respective timepoint, animals were euthanased by cervical dislocation and blood collected. Urine was also collected and analysed for HMC. Free HMC was analysed by mass spectroscopy.
parameter: concentration at 0.25 hr (µM)
Give the value in µM but do not write µM after it.

**Q:** Fill blank: measured concentration at 0.25 hr of the molecule COc1ccc(C2c3ccc(O)cc3OCC2c2ccc(O)cc2)cc1 (stereo not shown) is ____.
**A:** 131

----------
- Test system: HPAC (CRL-2119) pancreatic cancer cell line
- assayComment: Proliferation assay (MTT)
- Format: cell-based, human
- studyConditions: Table 2.1; Pancreatic CRL-2119; read-out: IC50
parameter: pIC50
Note on units: pIC50 is unitless, being -log10 of a concentration expressed in mol/L.

**Q:** Fill blank: measured pIC50 of the molecule N.N.[Cl][Pt][Cl] [Cisplatin, cisplatin, reference compound] is ____.
**A:** 5.03

----------
- Test system: MM200 melanoma cell line
- assayComment: Proliferation assay (MTT)
- Assay type: cell-based
- studyConditions: Table 2.2; Melanoma MM200; read-out: IC50
Recorded IC50 values for a group of compounds are listed next.

Here's what some known entries look like.
INSERT INTO measurements (compound, targetofassay, endpointresult) VALUES
  ('COc1ccc(C2c3ccc(O)cc3OCC2c2ccc(O)cc2)cc1 (centres unmarked)', 'MM200 melanoma cell line', '1.07 µM'),
  ('Oc1ccc(C2COc3cc(O)ccc3C2c2ccc(O)cc2)cc1 (centres unmarked)', 'MM200 melanoma cell line', '0.6 µM'),
  ('COc1ccc(C2COc3cc(OC)ccc3C2c2ccc(OC)cc2)cc1 (centres unmarked)', 'MM200 melanoma cell line', '> 100 µM');

**Q:** I'm curious: which IC50 was measured for Nc1cccc(C2c3ccc(O)cc3OCC2c2ccc(O)cc2)c1 (centres unmarked) tested on MM200 melanoma cell line?
**A:** 93 µM

**Q:** I'm curious: which IC50 was measured for Oc1ccc(C2COc3cc(O)ccc3C2c2ccccc2)cc1 (centres unmarked) [Compound 2, 3-(4-hydroxyphenyl)-4-phenylchroman-7-ol] tested on MM200 melanoma cell line?
**A:** 7.34 µM

----------
- Tested on: MM200 melanoma cell line
- assayComment: Proliferation assay (MTT)
- Type: cell-based
- studyConditions: Table 15; melanoma MM200, monotherapy
parameter: pIC50
Note on units: pIC50 is unitless, being -log10 of a concentration expressed in mol/L.

**Q:** Fill blank: measured pIC50 of the compound Oc1ccc(C2=Cc3ccc(O)cc3OC2)cc1 [DHE, dehydroequol, reference compound] is ____.
**A:** 5.32

----------
- assayComment: HMC and HHC pharmacokinetics, oral, human patients
- Format: in vivo
- studyConditions: plasma; human patients, 200 mg oral, initial results
parameter: half-life (h)
Give the value in h but do not write h after it.

INSERT INTO measurements (compound, unit, endpointresult) VALUES
  ('COc1ccc(C2c3ccc(O)cc3OCC2c2ccc(O)cc2)cc1 (centres unmarked)', 'h', 3.99);

Field: next compound
**Q:** Fill blank: measured half-life of the compound Oc1ccc(C2COc3cc(O)ccc3C2c2ccc(O)cc2)cc1 (centres unmarked) is ____.
**A:** 3.26

----------
- System: CCRF-CEM (Leukemic)
- assayComment: Proliferation assay (MTT)
- Type: cell-based
- studyConditions: Homo sapiens, CCRF-CEM, Table 2.2; Leukaemia CCRF-CEM
parameter: log10(IC50) (log10 of the value in µM)
Base-10 log of IC50, unit µM.

INSERT INTO measurements (molecule, targetofassay, parameter, endpointresult) VALUES
  ('Nc1cccc(C2c3ccc(O)cc3OCC2c2ccc(O)cc2)c1 (centres unmarked)', 'CCRF-CEM (Leukemic)', 'log10(IC50)', 1.86),
  ('Oc1ccc(C2COc3cc(O)ccc3C2c2ccc(O)cc2)cc1 (centres unmarked)', 'CCRF-CEM (Leukemic)', 'log10(IC50)', -0.22),
  ('Oc1ccc(C2COc3cc(O)ccc3C2c2ccccc2)cc1 (centres unmarked) [Compound 2, 3-(4-hydroxyphenyl)-4-phenylchroman-7-ol]', 'CCRF-CEM (Leukemic)', 'log10(IC50)', 0.60),
  ('COc1ccc(C2COc3cc(OC)ccc3C2c2ccc(OC)cc2)cc1 (centres unmarked)', 'CCRF-CEM (Leukemic)', 'log10(IC50)', 1.96);

**Q:** Fill blank: measured log10(IC50) of the molecule COc1ccc(C2c3ccc(O)cc3OCC2c2ccc(O)cc2)cc1 (centres unmarked) is ____.
**A:** 0.30

----------
- Test system: SKOV-3 ovarian cancer cell line
- assayComment: Proliferation assay (MTT)
- Type: cell-based
- studyConditions: Table 2.1; Ovarian SKOV-3; read-out: IC50
parameter: IC50 (µM)
Give the value in µM but do not write µM after it.

**Q:** Fill blank: measured IC50 of the molecule N.N.[Cl][Pt][Cl] [Cisplatin, cisplatin, reference compound] is ____.
**A:** 5.4

----------
- assayComment: HMC pharmacokinetics i.v. and i.p., mice
- Assay type: in vivo, female BALB/c mice
- studyConditions: female, BALB/c, mouse, serum, iv, 50 mg/kg, 24 hr
parameter: concentration at 24 hr (nM)
Give the value in nM but do not write nM after it.

**Q:** Fill blank: measured concentration at 24 hr of the compound COc1ccc(C2c3ccc(O)cc3OCC2c2ccc(O)cc2)cc1 (stereo not shown) is ____.
**A:** 50

----------
- assayComment: HMC pharmacokinetics i.v. and i.p., mice
- Assay type: in vivo, female BALB/c mice
- studyConditions: female, BALB/c, mouse, serum, ip, 50 mg/kg, ip, 1 hr; read-out: Serum HMC
parameter: concentration at 1 hr (µM)
Give the value in µM but do not write µM after it.

**Q:** Fill blank: measured concentration at 1 hr of the compound COc1ccc(C2c3ccc(O)cc3OCC2c2ccc(O)cc2)cc1 (stereo not shown) is ____.
**A:** 18.7

----------
- assayComment: DHE and HMC pharmacokinetics, oral, mice
- Format: in vivo, female BALB/c mice
- studyConditions: female, BALB/c, mouse, plasma, po, 50 mg/kg p.o., Time 0.5, read-out: Free plasma concentration
parameter: concentration at 0.5 hr (µM)
Give the value in µM but do not write µM after it.

**Q:** Fill blank: measured concentration at 0.5 hr of the compound COc1ccc(C2c3ccc(O)cc3OCC2c2ccc(O)cc2)cc1 (stereo not shown) [Compound 1] is ____.
**A:** 1.3

----------
- assayComment: DHE and HMC pharmacokinetics, oral, mice
- Format: in vivo, female BALB/c mice
- studyConditions: female, BALB/c, mouse, plasma, po, 50 mg/kg p.o., Time 1, read-out: Free plasma concentration
parameter: concentration at 1 hr
Put your answer as a value accompanied by its unit after it.

**Q:** Fill blank: measured concentration at 1 hr of the molecule COc1ccc(C2c3ccc(O)cc3OCC2c2ccc(O)cc2)cc1 (stereo not shown) is ____.
**A:** 950 nM

----------
- Test system: CP70 ovarian cancer cell line
- assayComment: Proliferation assay (MTT)
- Format: cell-based
- studyConditions: Table 2.2 (further studies); Ovarian CP70; read-out: IC50
parameter: pIC50
Note on units: pIC50 is unitless, being -log10 of a concentration expressed in mol/L.

Here's what some known entries look like.
INSERT INTO results (molecule, targetofassay, endpointresult) VALUES
  ('Oc1ccc(C2COc3cc(O)ccc3C2c2ccc(O)cc2)cc1 (centres unmarked) [Compound 11]', 'CP70 ovarian cancer cell line', 5.96),
  ('COc1ccc(C2c3ccc(O)cc3OCC2c2ccc(O)cc2)cc1 (centres unmarked) [Compound 1]', 'CP70 ovarian cancer cell line', 5.68);

Field: next molecule
**Q:** I'm curious: which pIC50 was measured for Oc1ccc(C2COc3cc(O)ccc3C2c2ccccc2)cc1 (centres unmarked) [Compound 2, 3-(4-hydroxyphenyl)-4-phenylchroman-7-ol] tested on CP70 ovarian cancer cell line?
**A:** 5.52

----------
- Tested on: HT-29 (Colorectal)
- assayComment: Proliferation assay (MTT)
- Format: cell-based
- studyConditions: Table 2.1; Colorectal HT-29
parameter: IC50 (µM)
Give the value in µM but do not write µM after it.

**Q:** Fill blank: measured IC50 of the compound N.N.[Cl][Pt][Cl] [Cisplatin, cisplatin, reference compound] is ____.
**A:** 22.7

----------
- assayComment: HMC and HHC pharmacokinetics, oral, human patients
- Type: in vivo
- studyConditions: human, po; humans dosed orally with 200 mg, plasma
parameter: Tmax

INSERT INTO assay_data (compound, parameter, endpointresult) VALUES
  ('Oc1ccc(C2COc3cc(O)ccc3C2c2ccc(O)cc2)cc1 (centres unmarked) [Compound 11]', 'Tmax', '2.67 h');

Field: next compound
**Q:** Fill blank: measured Tmax of the compound COc1ccc(C2c3ccc(O)cc3OCC2c2ccc(O)cc2)cc1 (centres unmarked) [Compound 1] is ____.
**A:** 2.17 h
